target: HDAC5 (Homo sapiens, UniProt Q9UQL6)
Sequence (Q9UQL6 656-1122 limits assumed): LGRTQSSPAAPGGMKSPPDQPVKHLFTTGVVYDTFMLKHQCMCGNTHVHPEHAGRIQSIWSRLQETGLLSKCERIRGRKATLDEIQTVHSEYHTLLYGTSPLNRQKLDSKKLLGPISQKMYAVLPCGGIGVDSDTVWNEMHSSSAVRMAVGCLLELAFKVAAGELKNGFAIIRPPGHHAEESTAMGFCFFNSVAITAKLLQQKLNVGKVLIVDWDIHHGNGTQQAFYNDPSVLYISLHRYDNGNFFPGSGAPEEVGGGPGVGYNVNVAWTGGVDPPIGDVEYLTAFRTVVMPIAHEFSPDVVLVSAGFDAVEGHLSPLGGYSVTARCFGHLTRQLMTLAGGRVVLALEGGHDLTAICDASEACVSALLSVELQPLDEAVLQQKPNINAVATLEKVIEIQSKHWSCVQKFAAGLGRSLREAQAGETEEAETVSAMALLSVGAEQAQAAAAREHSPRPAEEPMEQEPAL
pIC50: −log10 of the molar value.
parameter: pIC50

INSERT INTO measurements (smiles_string, parameter, value) VALUES
  ('O=C(NO)c1ccc(Cn2nnc(-c3ccccc3F)n2)cc1', 'pIC50', 5.63),
  ('O=C(NO)c1cc(F)c(Cn2nnc(-c3cccs3)n2)c(F)c1', 'pIC50', 5.92),
  ('Cn1c(Sc2ccc(C(=O)NO)cc2)nnc1-c1cccs1', 'pIC50', 5.57),
  ('CN(C)c1cccc(-c2nnc(Sc3c(F)cc(C(=O)NO)cc3F)n2C)c1', 'pIC50', 5.89),
  ('O=C(NO)c1cc(F)c(Cn2nnnc2-c2cccs2)c(F)c1', 'pIC50', 6.15);
